# METHOD: capillary depletion analysis after in situ brain perfusion
# Format: in vivo, mouse
# CONDITION INFO: male, BALB/c, mouse, capillary depletion supernatant (brain parenchyma), [3H] ADMA and [14C] Sucrose uptake, supernatant, 2.5 mins, 5ml/min; mean
Where a name gives a salt, the structure may show the parent alone.
MEASURED PROPERTY: Kp at […]

COMPOUND | ENDPOINT RESULT
CN(C)C(N)=NCCC[C@H](N)C(=O)O [ADMA, N^G,N^G-dimethylarginine dihydrochloride] | 0.0581
OC[C@H]1O[C@@](CO)(O[C@H]2O[C@H](CO)[C@@H](O)[C@H](O)[C@H]2O)[C@@H](O)[C@@H]1O [[^14C]-sucrose, reference compound] | 0.0098
